B1: CDC14A (parent)
chain: GPHPKSKIENGYPLHAPEAYFPYF

# Variants of: B1
# assay.explanation: protein stability index of a GFP-peptide fusion (GPS, HEK-293T) (PSI 1-6); higher = more stable;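 further: lentivirally expressed fusions sorted by FACS into six bins by GFP to DsRed ratio, PSI derived from sequencing read proportions per bin multiplied by bin number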
# experimental.setup: c terminus: a fixed tail appended
observable: protein stability index
Quick one: just the number, no unit, thanks!

Take a look at these entries with their results.
- variant.name: "Y20S"
  result: 2.55
- variant.name: "E18T"
  result: 2.01

Sample `H15I` — what was its protein stability index?
1.87

Sample `E9A` — what was its protein stability index?
1.92

Sample `E9N` — what was its protein stability index?
1.91
